Test: Cytotoxicity by Propidium Iodide staining
Please go through the items and note down their CC50.

Query: CC50; subject: COc1ccc(Cc2nnc(O)c3ccccc23)cc1
> 149 µM

Query: CC50; subject: Cn1nc(Cc2ccccc2Cl)c2ccccc2c1=O
> 176 µM

Fill in the blank: the reported CC50 of O=C1O/C(=C\c2ccccc2Cl)c2ccccc21 (stereo in doubt; 1b) is ____.
> 195 µM

Requested read-out: CC50. Entry: O=C1O/C(=C\c2ccc(Cl)cc2)c2c1cccc2[N+](=O)[O-]
< 20.7 µM

* * *

Tested on: Human immunodeficiency virus
Test: Specificity against NF-kappaB and Tat proteins assessed by activity in Hela Tet-ON assay
Assay type: functional
Active and inactive are the calls of the source. The rule behind the calls is not given here.
Thanks in advance; please answer with one of these: active, inactive

Each molecule tested received a call. Report the one for Cn1nc(Cc2cccc3ccccc23)c2ccccc2c1=O .
active

So what was the verdict on OC1(Cc2ccc(Cl)cc2)c2ccccc2C2=NCCN21 (centres undefined) in this test?
inactive

For O=c1c2ccccc2c(Cc2ccc(Cl)cc2)nn1-c1ccccc1 , what call appears in the results of this test?
inactive

Entry Cn1nc(Cc2ccccc2Cl)c2ccccc2c1=O : call = ?
inactive

Hi, sorry to bother you, what did the test record for CSc1ccc(CC2(O)c3ccccc3C3=NCCCN32)cc1 (centres undefined) ?
inactive

What call does the record list for CC(C)(C)n1nc(Cc2ccc(Cl)cc2)c2ccccc2c1=O ?
inactive

So what was the verdict on Cn1nc(Cc2ccc3c(c2)OCO3)c2ccccc2c1=O in this test?
inactive

What classification did O=C1O/C(=C\c2ccc(Cl)cc2)c2ccccc21 end up with in this test?
active

// param item: OC1(Cc2ccccc2Cl)c2cc(Cl)c(Cl)cc2C2=NCCN21 (centres undefined) ; yields the recorded call
active

Short answer needed: outcome of this test for O=C1O/C(=C\c2ccc3c(c2)OCO3)c2ccccc21 ?
active

Name the outcome recorded for OC1(Cc2ccccc2Cl)c2ccccc2C2=NCCCN21 (centres undefined) in the assay.
inactive

# lookup: test call for Oc1nnc(Cc2ccccc2Cl)c2cc(Cl)c(Cl)cc12
inactive

Given COc1ccc(CC2(O)c3cc(Cl)c(Cl)cc3C3=NCCN32)cc1 (centres undefined) , state the outcome it received in this test.
inactive

# fetch the recorded call for O=c1c2ccccc2c(Cc2ccc(Cl)cc2)nn1-c1ccc([N+](=O)[O-])cc1 here
inactive

How did this test come out for CCn1nc(Cc2ccc(OC)cc2)c2ccccc2c1=O ?
inactive

What call does the record list for OC1(Cc2ccc(Cl)c(Cl)c2)c2ccccc2C2=NCCCN21 (centres undefined) ?
inactive

Look up the recorded call for C=CCn1nc(Cc2ccc(OC)cc2)c2ccccc2c1=O in this test.
inactive

Called result for CCCCn1nc(Cc2ccc(OC)c(OC)c2)c2ccccc2c1=O
active

So what was the verdict on COc1cc(Cc2nnc(O)c3ccccc23)cc(OC)c1OC in this test?
inactive

Assay outcome for Cn1nc(Cc2ccc3ccccc3c2)c2ccccc2c1=O : what was it?
active

Tell me the assay call for O=C1O/C(=C\c2ccc(Cl)cc2)c2c1cccc2[N+](=O)[O-] please.
active

Write down the call the test reported for this molecule. Item: Oc1nnc(Cc2ccccc2Cl)c2ccccc12
inactive

Field: outcome | Entry: O=C1O/C(=C\c2ccccc2Cl)c2ccccc21 (stereo in doubt; 1b)
inactive

Which result was noted for this molecule in the test: OC1(Cc2ccc3ccccc3c2)c2ccccc2C2=NCCCN21 (centres undefined)
inactive
